- test: inhibitors of HIV-1 Env-driven cell-cell fusion, primary screen, HeLa-JRFL effector, CEM21 target cells, luciferase (AID 651610);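 further: 0% = plate neutral controls and 100% = maraviroc near 300 nM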
- cond: stronger effect = higher value; at 16.7 µM unless noted
Screen size: about 360,000 compounds; about 3,900 (1.1%) were called active. What follows is part of a selection rich in actives, with near analogues and random picks from the rest.
Quick reference: inhibition of the listed items.
endpoint: inhibition

{"molecule.smiles": "C[C@H](CO)N1C[C@H](C)[C@H](CN(C)C(=O)c2ccccc2)OCCCC[C@H](C)Oc2ccc(NS(C)(=O)=O)cc2C1=O", "endpoint": "inhibition", "value.observed": "-12.1% (inactive)"}
{"molecule.smiles": "O=C(CCS(=O)(=O)c1ccccc1)Nc1nc2c(s1)CCCC2", "endpoint": "inhibition", "value.observed": "60.1% [at 12.3 µM] (active)"}
{"molecule.smiles": "O=C(CSc1nc(O)c(Cc2ccccc2)c(=O)[nH]1)Nc1nc2c(s1)CCCC2", "endpoint": "inhibition", "value.observed": "25.1% [at 12.3 µM] (inactive)"}
{"molecule.smiles": "C[C@H](CO)N1C[C@H](C)[C@H](CN(C)S(C)(=O)=O)Oc2ncc(C3=CCCCC3)cc2C1=O", "endpoint": "inhibition", "value.observed": "10.5% (inactive)"}
{"molecule.smiles": "O=C(CCS(=O)(=O)c1ccccc1)NC1CCCC1", "endpoint": "inhibition", "value.observed": "11.3% [at 12.3 µM] (inactive)"}
{"molecule.smiles": "O=C(Nc1ccc(F)cc1)N[C@H]1C=C[C@@H](CC(=O)N2CCOCC2)O[C@H]1CO", "endpoint": "inhibition", "value.observed": "-5.7% (inactive)"}
{"molecule.smiles": "COc1cccc(C(=O)Nc2ccc3c(c2)C(=O)N(C)[C@@H]2CC[C@H](CC(=O)NCCCN4CCOCC4)O[C@H]2CO3)c1", "endpoint": "inhibition", "value.observed": "-4.21% (inactive)"}
{"molecule.smiles": "C[C@@H]1CN([C@@H](C)CO)C(=O)c2cc(N(C)C)ccc2O[C@H]1CN(C)Cc1ccc(C(F)(F)F)cc1", "endpoint": "inhibition", "value.observed": "14.9% (inactive)"}
{"molecule.smiles": "COc1ccccc1S(=O)(=O)N[C@@H]1CC[C@@H](CCNC(=O)C2CCCCC2)O[C@@H]1CO", "endpoint": "inhibition", "value.observed": "-6.59% (inactive)"}
